Cited source for all entries: patent US7932262B2

# Tested on: A2780 cells
# assay: Cell Proliferation Assay (Cell Titer Glo), A2780
# Assay type: cell-based
# assayConditions: Homo sapiens; Cell Proliferation Assay, A2780; read-out: CPEC50 A2780

{"columns": ["chemicalSmiles", "target", "EC50"],
 "data": [
  ["NS(=O)(=O)c1ccc(Nc2ncc3cccc(C(=O)NC4CCOCC4)c3n2)cc1", "A2780 cells", "< 5 µM"],
  ["NS(=O)(=O)c1ccc(Nc2ncc3cccc(OCCCn4c(=O)[nH]c5ccccc54)c3n2)cc1", "A2780 cells", "5 to 10 µM"],
  ["CC(=O)Nc1ccc2cnc(Nc3ccc(S(N)(=O)=O)cc3)nc2c1", "A2780 cells", "< 5 µM"],
  ["NC(=O)c1ccc(Nc2ncc3cccc(OC4CCCC4)c3n2)cc1", "A2780 cells", "< 5 µM"],
  ["NC(=O)c1cccc(COc2cccc3cnc(Nc4ccc(S(N)(=O)=O)cc4)nc23)c1", "A2780 cells", "< 5 µM"],
  ["CNC(=O)c1cc(Oc2ccc3cnc(Nc4ccc(S(N)(=O)=O)cc4)nc3c2)ccn1", "A2780 cells", "5 to 10 µM"],
  ["NS(=O)(=O)c1ccc(Nc2ncc3cc(Br)cc(O)c3n2)cc1", "A2780 cells", "< 5 µM"],
  ["NC(=O)c1ccc2cnc(Nc3ccc(S(N)(=O)=O)cc3)nc2c1", "A2780 cells", "< 5 µM"],
  ["Nc1ccc2cnc(Nc3ccc(S(N)(=O)=O)cc3)nc2c1", "A2780 cells", "< 5 µM"]
]}
